system: U2OS-ERα cells; assay: KRT19 mRNA real-time PCR in U2OS-ERα cells; assay type: cell-based, human; conditions: 10 nM E2, 5 μM 2′,3′,4′-THC, 1 μM tamoxifen or raloxifene, 24 hours
RECORDED_METRIC: KRT19 gene expression, compound alone

>>> test_value("O=C(c1ccc(OCCN2CCCCC2)cc1)c1c(-c2ccc(O)cc2)sc2cc(O)ccc12")
"no effect"
>>> test_value("CC/C(=C(\\c1ccccc1)c1ccc(OCCN(C)C)cc1)c1ccccc1")
"no effect"
>>> test_value("O=C(/C=C/c1ccccc1)c1ccc(O)c(O)c1O [2′, 3′, 4′-THC, 2′, 3′, 4′-trihydroxychalcone]")
"no effect"
